Biological target: Rap guanine nucleotide exchange factor 3 (Homo sapiens) (UniProt O95398)
Sequence (O95398 whole entry, looked up): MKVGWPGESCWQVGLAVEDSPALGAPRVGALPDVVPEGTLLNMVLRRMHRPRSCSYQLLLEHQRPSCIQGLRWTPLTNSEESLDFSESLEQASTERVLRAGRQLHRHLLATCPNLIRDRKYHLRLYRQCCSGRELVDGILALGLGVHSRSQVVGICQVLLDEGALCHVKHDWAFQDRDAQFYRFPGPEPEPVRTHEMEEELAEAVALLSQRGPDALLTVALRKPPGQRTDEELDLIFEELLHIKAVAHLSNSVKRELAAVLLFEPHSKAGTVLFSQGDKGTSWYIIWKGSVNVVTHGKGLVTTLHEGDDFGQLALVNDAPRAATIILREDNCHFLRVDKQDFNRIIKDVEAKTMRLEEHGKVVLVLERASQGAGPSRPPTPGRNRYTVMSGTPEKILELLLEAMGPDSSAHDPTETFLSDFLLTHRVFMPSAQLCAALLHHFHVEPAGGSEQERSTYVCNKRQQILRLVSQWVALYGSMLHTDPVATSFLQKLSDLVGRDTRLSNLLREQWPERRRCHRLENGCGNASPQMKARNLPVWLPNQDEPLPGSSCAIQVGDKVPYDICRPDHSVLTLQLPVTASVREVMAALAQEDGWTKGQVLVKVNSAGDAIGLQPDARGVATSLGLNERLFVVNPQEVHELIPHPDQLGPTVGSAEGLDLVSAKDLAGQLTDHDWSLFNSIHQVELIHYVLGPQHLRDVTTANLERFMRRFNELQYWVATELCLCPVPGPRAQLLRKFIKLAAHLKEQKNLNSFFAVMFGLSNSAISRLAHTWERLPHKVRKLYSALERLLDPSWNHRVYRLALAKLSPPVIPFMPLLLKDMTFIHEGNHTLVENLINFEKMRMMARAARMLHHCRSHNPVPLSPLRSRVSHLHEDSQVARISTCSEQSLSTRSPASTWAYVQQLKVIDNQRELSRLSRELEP
Experiment: Confirmatory qHTS for antagonist of cAMP-regulated guanine nucleotide exchange factor 3 (EPAC1) (AID 1645880); also: nearly all actives have a fitted effect of over 55% in size
Conditions: EPAC1 Rap1B-BODIPY-GDP exchange, fluorescence; series mostly up to 115 µM
Inconclusive results are not listed. Active and inactive are the calls of the source. Calls follow the shape of the dose curve; as a rule, active = well fitted inhibition curve with a large enough effect; inconclusive = small, poorly fitted or top-dose-only effect; inactive = no such curve, though single readings can be large or run the other way.
Outcomes: active, inactive

- compound: "COc1ccc(N(Cc2cccs2)C(=O)c2ccco2)cc1"
  group label: "inactive"
- compound: "COc1ccc(C(=O)c2ccc(Br)cc2)c2ccccc12"
  group label: "inactive"
- compound: "CCOC(=O)CSc1ccc2nnc(-c3ccccc3)n2n1"
  group label: "inactive"
- compound: "O=C1OC(c2ccccc2)/C(=C(/O)c2ccccc2)C1=O (stereo unspecified)"
  group label: "inactive"
- compound: "CCOc1ccc(C(=O)Nc2ccc3c(c2)N(C(C)=O)CCC3)cc1OCC"
  group label: "inactive"
- compound: "COc1ccc(N(C)C(=O)CC2(CC(=O)O)CCCCC2)cc1"
  group label: "inactive"
- compound: "COc1cc(OC)nc(Oc2cccc(Cl)c2C)n1"
  group label: "inactive"
- compound: "O=C(c1ccc(CSCc2ccccc2F)o1)N1CCN(c2ccc(N3CCOCC3)nn2)CC1"
  group label: "inactive"
- compound: "CCOc1ccc(C2=CC(c3cccc(Br)c3)n3c(nc4ccccc43)N2)cc1Cl (stereo unspecified)"
  group label: "inactive"
- compound: "O=C(O)c1ccccc1N/N=C/C1=C(N2CCOCC2)C(=C\\c2ccccc2)/CC1"
  group label: "active"
- compound: "Cn1c(=O)cc(N2CCN(C(=O)c3ccco3)CC2)[nH]c1=O"
  group label: "inactive"

====

Molecular target: Rap guanine nucleotide exchange factor 4 (Homo sapiens) (UniProt Q8WZA2)
Sequence (Q8WZA2 whole entry, looked up): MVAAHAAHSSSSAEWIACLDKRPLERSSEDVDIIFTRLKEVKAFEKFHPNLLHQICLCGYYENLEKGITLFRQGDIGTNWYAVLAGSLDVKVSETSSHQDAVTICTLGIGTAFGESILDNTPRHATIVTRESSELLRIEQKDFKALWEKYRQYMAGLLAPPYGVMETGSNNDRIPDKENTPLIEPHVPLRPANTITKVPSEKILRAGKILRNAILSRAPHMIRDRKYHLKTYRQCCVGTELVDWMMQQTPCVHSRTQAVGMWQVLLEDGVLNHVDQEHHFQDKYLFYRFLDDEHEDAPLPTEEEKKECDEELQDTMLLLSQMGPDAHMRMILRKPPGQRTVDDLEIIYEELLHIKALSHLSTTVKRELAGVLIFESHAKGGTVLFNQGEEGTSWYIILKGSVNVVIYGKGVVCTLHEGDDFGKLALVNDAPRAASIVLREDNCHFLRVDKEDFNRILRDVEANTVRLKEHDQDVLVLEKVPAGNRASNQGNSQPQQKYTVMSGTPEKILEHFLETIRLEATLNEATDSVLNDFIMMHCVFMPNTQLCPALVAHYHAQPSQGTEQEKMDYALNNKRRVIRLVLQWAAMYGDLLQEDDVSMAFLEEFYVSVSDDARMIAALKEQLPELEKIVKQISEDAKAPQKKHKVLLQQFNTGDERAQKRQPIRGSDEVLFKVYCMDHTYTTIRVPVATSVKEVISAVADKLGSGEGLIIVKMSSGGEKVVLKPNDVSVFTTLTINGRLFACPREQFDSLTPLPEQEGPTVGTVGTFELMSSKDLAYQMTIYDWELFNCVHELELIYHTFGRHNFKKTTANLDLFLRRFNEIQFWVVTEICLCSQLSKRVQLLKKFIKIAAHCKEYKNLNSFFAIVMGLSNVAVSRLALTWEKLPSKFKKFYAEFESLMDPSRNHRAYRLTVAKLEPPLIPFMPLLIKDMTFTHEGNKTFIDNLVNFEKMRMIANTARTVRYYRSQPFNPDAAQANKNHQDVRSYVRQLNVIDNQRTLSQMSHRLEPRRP
Assay: Confirmatory qHTS for antagonist of cAMP-regulated guanine nucleotide exchange factor 4 (EPAC2) (AID 1645885); also: nearly all actives have a fitted effect of over 25% in size
Settings: EPAC2 Rap1B-BODIPY-GDP exchange fluorescence, biochemical; series mostly up to 12.7 µM
Results filed as inconclusive are left out. Active and inactive are the calls of the source. The call rests on the fitted dose curve; in most records, active means well fitted inhibition curve with a large enough effect; inconclusive means small, poorly fitted or top-dose-only effect; inactive means no such curve, though single readings can be large or run the other way.
Labels: true (active), false (inactive)

- molecule: "CCOc1cc(C2C3=C(CC(C)(C)CC3=O)N(CCOC)C3=C2C(=O)CC(C)(C)C3)ccc1O"
  group label: "false"
- molecule: "COc1cc(C)cc(C(=O)C=Cc2ccccc2)c1O"
  group label: "false"
- molecule: "CC(C)OC(=O)/C(=C/c1ccc2c(c1)c1ccccc1n2C)NC(=O)c1ccccc1"
  group label: "false"
- molecule: "CC(=O)NC(c1ccc2ccccc2c1)c1ccc2cccnc2c1O (stereo unspecified)"
  group label: "true"
- molecule: "COc1ccc(Cl)cc1N1C(=O)C2CCCN2C1c1ccccc1F (stereo unspecified)"
  group label: "false"
- molecule: "O=C(/C=C/c1ccco1)c1cccc([N+](=O)[O-])c1"
  group label: "false"
- molecule: "C1=Cc2ccccc2/C1=C\\c1ccc2c(c1)OCO2"
  group label: "false"
- molecule: "O=C1O/C(=C/c2ccccc2)N=C1c1ccccc1"
  group label: "false"
- molecule: "Cc1ccc(S(=O)(=O)N2CCN(C(=O)CC(C)n3nc(C)c(Cl)c3C)CC2)cc1 (stereo unspecified)"
  group label: "false"
- molecule: "CCOc1ccc(C2=CC(c3cccc(Br)c3)n3c(nc4ccccc43)N2)cc1Cl (stereo unspecified)"
  group label: "false"
- molecule: "Nc1ccc2c3c(cccc13)-c1ccccc1-2"
  group label: "false"
